Hey, just so you know, these numbers are from the supplement of paper PMC10338343.

tested on: MIWI (PIWIL1) piRISC loaded with L1MC piRNA (30 nt); test: pre-steady-state target cleavage rate (min^-1); MIWI and MILI are mouse PIWI proteins and EfPiwi is from a freshwater sponge; tags in brackets are library labels; higher = faster piRNA-guided slicing of the target; settings: guide: L1MC piRNA 5'p-UAACUAAAUACUAUGCAAGCUGUAGGUCCU; auxiliary factor: 500 nM mouse GTSF1;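 also: 1 nM active piRISC with 0.1 nM target library at 33 °C single turnover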
The full ranking holds about 8,200 sequences; the median of “pre-steady-state target cleavage rate” is about 0.024, and the highest 2% start at about 1.3. This is one part of a sample in which the highest values are shown more often than they occur.
Readings of pre-steady-state target cleavage rate for the listed sequences

{"POLYMER_SEQUENCE": "UCGGCCUACAGCUUGCAUAGUAUUUAGUUA", "pre-steady-state target cleavage rate": 1.21}
{"POLYMER_SEQUENCE": "UCCACCUCACAGCUUGCAUAGUAUUUAGUUA", "pre-steady-state target cleavage rate": 1.06}
{"POLYMER_SEQUENCE": "UCCUCCUACAGCUUGCAUAGUACUUUAGUUA", "pre-steady-state target cleavage rate": 0.588}
{"POLYMER_SEQUENCE": "UCCUGGAUCAGCAUGCAUAGUAUUUACAAA", "pre-steady-state target cleavage rate": 0.156}
{"POLYMER_SEQUENCE": "UCGACCUCCAGCUUGCAUAGUAUUUAGUUA", "pre-steady-state target cleavage rate": 1.17}
